Target: human DGKζ (Homo sapiens, UniProt Q13574)
Construct: made in house; host or cells: Sf9 insect cells, baculovirus
Sequence (Q13574 with tags, fused parts or gaps): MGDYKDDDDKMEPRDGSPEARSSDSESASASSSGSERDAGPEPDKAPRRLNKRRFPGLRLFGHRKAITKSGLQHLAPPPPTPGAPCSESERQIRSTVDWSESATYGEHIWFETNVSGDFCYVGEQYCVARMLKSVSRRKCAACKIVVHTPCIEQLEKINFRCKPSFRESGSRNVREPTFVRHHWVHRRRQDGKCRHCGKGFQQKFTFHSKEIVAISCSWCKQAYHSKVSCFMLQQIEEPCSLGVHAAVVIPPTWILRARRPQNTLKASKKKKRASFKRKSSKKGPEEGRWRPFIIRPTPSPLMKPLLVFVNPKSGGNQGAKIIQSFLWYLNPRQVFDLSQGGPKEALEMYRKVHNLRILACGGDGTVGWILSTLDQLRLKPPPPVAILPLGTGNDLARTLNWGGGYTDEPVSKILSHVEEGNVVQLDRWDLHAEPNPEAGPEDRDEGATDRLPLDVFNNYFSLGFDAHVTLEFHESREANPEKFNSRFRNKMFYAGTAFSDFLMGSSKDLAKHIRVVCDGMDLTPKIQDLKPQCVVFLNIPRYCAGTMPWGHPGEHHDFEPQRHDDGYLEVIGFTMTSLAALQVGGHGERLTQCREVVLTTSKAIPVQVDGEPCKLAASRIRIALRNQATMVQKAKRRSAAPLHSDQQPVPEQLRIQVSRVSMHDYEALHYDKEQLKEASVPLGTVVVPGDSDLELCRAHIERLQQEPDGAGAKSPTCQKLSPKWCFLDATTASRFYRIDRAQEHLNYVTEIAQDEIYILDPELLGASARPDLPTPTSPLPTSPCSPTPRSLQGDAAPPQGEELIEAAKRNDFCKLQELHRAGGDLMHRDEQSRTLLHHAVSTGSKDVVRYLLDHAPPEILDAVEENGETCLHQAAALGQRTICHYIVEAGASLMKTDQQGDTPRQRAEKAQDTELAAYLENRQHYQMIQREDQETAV
Test: Human DGKζ kinase activity inhibition assay (ADP-Glo)
Type: biochemical
Conditions: recombinant full-length human DGKζ, 55 μM ATP, 7 μM 1,2-dioleoyl-sn-glycerol, 20 min at 22° C.; read-out: IC50 in vitro human DGKζ kinase activity inhibition assay
measured.endpoint: IC50 (nM)
Numbers only, in nM.

Worked examples follow.
| compound | units.of.measure | IC50 |
| --- | --- | --- |
| CNC(=O)COc1ccc(C(=O)c2sc(N(c3ccc(F)cc3)C(C)C(N)=O)nc2N)cc1 (single isomer, unassigned) [Example 151] | nM | 387 |
| CC(C)NC(=O)COc1ccc(C(=O)c2sc(N(c3ccc(F)cc3)C(C)C(N)=O)nc2N)cc1 (single isomer, unassigned) [Example 153] | nM | 107 |

Tell me reported IC50 for CC(C(N)=O)N(c1ccc(F)cc1)c1nc(N)c(C(=O)c2ccc(OCC(=O)Nc3ccc(Cl)cc3)cc2)s1 (single isomer, unassigned) [Example 145] , tested with human DGKζ (Homo sapiens, UniProt Q13574).
2.66

----------
Give IC50 for every item shown.
Target: human DGKζ (Homo sapiens, UniProt Q13574)
Construct: made in house; host or cells: Sf9 insect cells, baculovirus
Experiment: Human DGKζ kinase activity inhibition assay (ADP-Glo)
Type: biochemical
Settings: intermediates (lacking the R2 side chain; comparative); highest test concentration 20 μM; read-out: IC50 values of intermediates in in vitro human DGKζ kinase activity inhibition assays

Worked examples follow.
| record.smiles | IC50 |
| --- | --- |
| COc1ccc(Nc2nc(N)c(C(=O)c3ccccc3)s2)cc1 | > 20 µM |
| Cc1ccc(C(=O)c2sc(Nc3ccc(F)cc3)nc2N)cc1 | > 20 µM |
| Nc1nc(Nc2ccc(F)cc2F)sc1C(=O)c1ccccc1 | > 20 µM |

Next, consider the following molecule.
Record request: IC50 value, item Nc1nc(Nc2ccc(F)cc2)sc1C(=O)c1ccc(F)cc1
> 20 µM

----------
Biological target: human DGKζ (Homo sapiens, UniProt Q13574)
Construct: made in house; host or cells: Sf9 insect cells, baculovirus
Assay: Human DGKζ kinase activity inhibition assay (ADP-Glo)
Type: biochemical
Conditions: recombinant full-length human DGKζ, 55 μM ATP, 7 μM 1,2-dioleoyl-sn-glycerol, 20 min at 22° C.; read-out: IC50 in vitro human DGKζ kinase activity inhibition assay
IC50 strictly under 30 nM means T; at 30 nM or over means F.

Worked set:
| compound | tested.target | class.name |
| --- | --- | --- |
| COc1ccc(C(=O)c2sc(N(c3ccc(F)c(F)c3)C(C)C(N)=O)nc2N)cc1 (single isomer, unassigned) [Example 51.1] | human DGKζ (Homo sapiens, UniProt Q13574) | T |
| CC(C(N)=O)N(c1ccc(Cl)c(F)c1)c1nc(N)c(C(=O)c2ccc(OC(F)F)nc2)s1 (single isomer, unassigned) [Example 164.2] | human DGKζ (Homo sapiens, UniProt Q13574) | F |
| CC(C(N)=O)N(c1ccc(F)cc1)c1nc(N)c(C(=O)c2ccc(OCC(=O)NCCC34CC5CC(CC(C5)C3)C4)cc2)s1 (single isomer, unassigned) [Example 144] | human DGKζ (Homo sapiens, UniProt Q13574) | T |

Check if IC50 falls below 30 nM for CC(C(N)=O)N(c1ccc(F)c(Cl)c1)c1nc(N)c(C(=O)c2ccncc2)s1 (single isomer, unassigned) [Example 160.1] .
F

Check if IC50 falls below 30 nM for COc1ccc(C(=O)c2sc(N(c3ccc(F)cc3)C(C)C(N)=O)nc2C)cc1 (single isomer, unassigned) [Example 176.1] .
F

Check if IC50 falls below 30 nM for CC(C(N)=O)N(c1ccc(F)c(F)c1)c1nc(N)c(C(=O)c2ccc(OC(F)F)nc2)s1 (single isomer, unassigned) [Example 163.1] .
T

----------
Molecular target: human DGKζ (Homo sapiens)
Construct: made in house; host or cells: Sf9 insect cells, baculovirus
Assay: Human DGKζ kinase activity inhibition assay (ADP-Glo)
Assay type: biochemical
Conditions: recombinant full-length human DGKζ, 55 μM ATP, 7 μM 1,2-dioleoyl-sn-glycerol, 20 min at 22° C.; read-out: IC50 in vitro human DGKζ kinase activity inhibition assay
Give IC50 for every item shown.
Give bare numbers, in nM.

Worked examples follow.
| compound | IC50, nM |
| --- | --- |
| CC(C(N)=O)N(c1ccc(F)cc1)c1nc(N)c(C(=O)c2ccc(OCc3ccccc3)cc2)s1 (single isomer, unassigned) [Example 170.2] | 1000 |
| NC(=O)CN(c1ccc(F)cc1)c1nc(N)c(C(=O)c2ccccc2)s1 (racemic) [Example 71] | 2310 |
| CC(C(N)=O)N(c1ccc(F)cc1)c1nc(N)c(C(=O)c2ccc(OCC(=O)NCC34CC5CC(CC(C5)C3)C4)cc2)s1 (single isomer, unassigned) [Example 143] | 12.7 |
| CC(C(N)=O)N(c1ccc(F)c(F)c1)c1nc(N)c(C(=O)c2ccc(OC(F)F)cc2)s1 (single isomer, unassigned) [Example 49.1] | 1030 |
| CC(C(N)=O)N(c1ccc(F)cc1)c1nc(N)c(C(=O)c2ccc(C#N)c(F)c2)s1 (single isomer, unassigned) [Example 21.2] | 51 |
| CC(C(N)=O)N(c1ccc(F)cc1)c1nc(N)c(C(=O)c2ccc(OCC(=O)NCCN3CCCCC3)cc2)s1 (single isomer, unassigned) [Example 148] | 76.4 |
| CC(C(N)=O)N(c1cccc(F)c1)c1nc(N)c(C(=O)c2ccccc2)s1 (single isomer, unassigned) [Example 74.2] | 81.4 |
| CNC(=O)COc1ccc(C(=O)c2sc(N(c3ccc(F)cc3)C(C)C(N)=O)nc2N)cc1 (single isomer, unassigned) [Example 150] | 372 |
| CC(C(N)=O)N(c1ccc(Cl)c(F)c1)c1nc(N)c(C(=O)c2ccncc2)s1 (single isomer, unassigned) [Example 56.2] | 7640 |
| CC(C(N)=O)N(c1nc(N)c(C(=O)c2ccccc2)s1)c1ccccc1F (single isomer, unassigned) [Example 75.2] | 214 |

For every item below, please supply its IC50.
1. CC(C(N)=O)N(c1ccc(Cl)c(F)c1)c1nc(N)c(C(=O)c2ccc(OCc3ccccc3)cc2)s1 (single isomer, unassigned) [Example 166.1]
2. CC(C(N)=O)N(c1ccc(F)cc1)c1nc(N)c(C(=O)c2ccc(OCC(N)=O)cc2)s1 (single isomer, unassigned) [Example 149]
3. COc1ccc(C(=O)c2sc(N(c3ccc(F)c(F)c3)C(C)C(N)=O)nc2N)cc1 (single isomer, unassigned) [Example 51.2]
4. Cc1cccc(N(c2nc(N)c(C(=O)c3ccccc3)s2)C(C)C(N)=O)c1 (single isomer, unassigned) [Example 76.2]
5. Cc1ccc(C(=O)c2sc(N(CC(N)=O)c3ccc(F)cc3)nc2N)cc1 (racemic) [Example 72]

2
405
872
11000
985

----------
Target: human DGKζ (Homo sapiens, UniProt Q13574)
Construct: made in house; host or cells: Sf9 insect cells, baculovirus
Experiment: Human DGKζ kinase activity inhibition assay (ADP-Glo)
Type: biochemical
Settings: recombinant full-length human DGKζ, 55 μM ATP, 7 μM 1,2-dioleoyl-sn-glycerol, 20 min at 22° C.; read-out: IC50 in vitro human DGKζ kinase activity inhibition assay
measured.endpoint: pIC50
Give bare numbers, as −log10 of the molar value.

Worked examples follow.
| compound | pIC50 |
| --- | --- |
| CC(C)NC(=O)COc1ccc(C(=O)c2sc(N(c3ccc(F)cc3)C(C)C(N)=O)nc2N)cc1 (single isomer, unassigned) [Example 152] | 6.95 |
| Cc1nc(N(c2ccc(F)cc2)C(C)C(N)=O)sc1C(=O)c1ccc(OC(F)F)cc1 (racemic) | 7.68 |
| COc1ccc(C(=O)c2sc(N(c3ccc(Cl)c(F)c3)C(C)C(N)=O)nc2N)cn1 (single isomer, unassigned) | 7.62 |
| CC(C(N)=O)N(c1ccc(F)cc1)c1nc(N)c(C(=O)c2ccc(Cl)cc2)s1 (single isomer, unassigned) | 8.13 |
| CC(C(N)=O)N(c1ccc(F)c(F)c1)c1nc(N)c(C(=O)c2ccc(NC(=O)OCc3ccccc3)cc2)s1 (single isomer, unassigned) | 8.52 |

Next, consider the following compound.
Record request: pIC50 value, item CC(C(N)=O)N(c1ccc(F)cc1)c1nc(N)c(C(=O)c2ccc(OCC(=O)Nc3ccc(C(N)=O)cc3)cc2)s1 (single isomer, unassigned)
7.67
